This collection of values is drawn from paper PMC7073468.

# SUBJECT_OF_TEST: RapZ (Escherichia coli)
# Sequence (P0A894 whole entry): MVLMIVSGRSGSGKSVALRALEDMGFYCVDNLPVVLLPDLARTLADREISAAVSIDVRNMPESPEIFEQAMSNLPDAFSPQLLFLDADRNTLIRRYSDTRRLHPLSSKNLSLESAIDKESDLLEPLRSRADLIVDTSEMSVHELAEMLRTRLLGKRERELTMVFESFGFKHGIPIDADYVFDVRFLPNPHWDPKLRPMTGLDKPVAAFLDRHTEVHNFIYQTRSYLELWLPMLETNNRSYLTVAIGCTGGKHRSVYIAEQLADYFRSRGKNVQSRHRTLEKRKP
MEASURE: Kd (nM)
Return type: number; implicit unit nM.

Query: If you can, please state the reported Kd value of N[C@H]1C(O)O[C@H](COP(=O)(O)O)[C@@H](O)[C@@H]1O (stereo partly shown) [GlcN6P] .
Result: 186
